Content reduction (%) values, listed per item
# ASSAY_PROCEDURE: Stability test of compounds in solutions at different pH values
# COND: buffered saline solution pH 6.8, 9 h
Unit % implied. Number only.

Some compounds with known Content reduction (%) results, for comparison:
• O=c1ccn([C@@H]2O[C@](F)(CO)[C@@H](O)[C@H]2O)c(=O)[nH]1 [Compound X28-1, reference compound] = 22.0
• CC(C)C(=O)OC[C@@]1(F)O[C@@H](n2ccc(=O)n(COC(=O)C3CCCCC3)c2=O)[C@H](O)[C@@H]1O = 3.3

Asked: Indicate the recorded Content reduction (%) value for this compound: "CCC(CC)C(=O)OCn1c(=O)ccn([C@@H]2O[C@](F)(COC(=O)C(C)C)[C@@H](O)[C@H]2O)c1=O"
Given back: 3.3

Asked: Give the measured Content reduction (%) for "CC(=O)OC[C@@]1(F)O[C@@H](n2ccc(=O)n(COC(=O)c3cccnc3)c2=O)[C@H](OC(C)=O)[C@@H]1OC(C)=O"
Given back: 2.92

---

# ASSAY_PROCEDURE: Stability test of compounds in solutions at different pH values
# COND: buffered saline solution pH 6.8, 21 h
REPORTED_PROPERTY: Content reduction (%)
Unit % implied. Number only.

Answered cases to consult:
* CC(C)C(=O)OCn1c(=O)ccn([C@@H]2O[C@](F)(COC(=O)C(C)C)[C@@H](O)[C@H]2O)c1=O [Compound X51] | 6.5
* CC(C)C(=O)OC[C@@]1(F)O[C@@H](n2ccc(=O)n(COC(=O)c3cccnc3)c2=O)[C@H](OC(=O)C(C)C)[C@@H]1OC(=O)C(C)C [Compound X206] | 7.28
* O=c1ccn([C@@H]2O[C@](F)(CO)[C@@H](O)[C@H]2O)c(=O)[nH]1 [Compound X28-1, reference compound] | 42.9

Asked: Tell us which Content reduction (%) value is on record for CC(=O)OC[C@@]1(F)O[C@@H](n2ccc(=O)n(COC(=O)c3cccnc3)c2=O)[C@H](OC(C)=O)[C@@H]1OC(C)=O [Compound X219]
Given back: 7.02

Asked: Look up and report measured Content reduction (%) for this entry: CCC(CC)C(=O)OCn1c(=O)ccn([C@@H]2O[C@](F)(COC(=O)C(C)C)[C@@H](O)[C@H]2O)c1=O [Compound X52]
Given back: 7.6

Asked: Specify Content reduction (%) for CC(C)C(=O)OC[C@@]1(F)O[C@@H](n2ccc(=O)n(COC(=O)C3CCCCC3)c2=O)[C@H](O)[C@@H]1O [Compound X55] and stop.
Given back: 7.7

Asked: Give recorded Content reduction (%). CC(=O)OC[C@@]1(F)O[C@@H](n2ccc(=O)n(COC(=O)c3cccnc3)c2=O)[C@H](OC(C)=O)[C@@H]1OC(C)=O.Cl [X219 hydrochloride]
Given back: 7.07

---

# ASSAY_PROCEDURE: Stability test of compounds in solutions at different pH values
# COND: buffered saline solution pH 4.0, 3 h
Classify: label 1 when Content reduction (%) is strictly less than 0.9%; label 0 when Content reduction (%) is not.

* CC(C)C(=O)OC[C@@]1(F)O[C@@H](n2ccc(=O)n(COC(=O)C3CCCCC3)c2=O)[C@H](O)[C@@H]1O | label 0
* CC(C)C(=O)OCn1c(=O)ccn([C@@H]2O[C@](F)(COC(=O)C(C)C)[C@@H](O)[C@H]2O)c1=O | label 0
* CC(C)C(=O)OC[C@@]1(F)O[C@@H](n2ccc(=O)n(COC(=O)c3cccnc3)c2=O)[C@H](OC(=O)C(C)C)[C@@H]1OC(=O)C(C)C | label 1
* O=c1ccn([C@@H]2O[C@](F)(CO)[C@@H](O)[C@H]2O)c(=O)[nH]1 [Compound X28-1, reference compound] | label 0
* CC(=O)OC[C@@]1(F)O[C@@H](n2ccc(=O)n(COC(=O)c3cccnc3)c2=O)[C@H](OC(C)=O)[C@@H]1OC(C)=O.Cl [X219 hydrochloride] | label 1

--- query ---
Asked: Could you please tell me whether Content reduction (%) recorded for "CC(=O)OC[C@@]1(F)O[C@@H](n2ccc(=O)n(COC(=O)c3cccnc3)c2=O)[C@H](OC(C)=O)[C@@H]1OC(C)=O" is less than 0.9%?
Given back: label 1

---

Reported Content reduction (%) values for the following compounds.
# ASSAY_PROCEDURE: Stability test of compounds in solutions at different pH values
# COND: buffered saline solution pH 6.8, 24 h
The reply should be a number in %, with the unit left off.

- CC(=O)OC[C@@]1(F)O[C@@H](n2ccc(=O)n(COC(=O)c3cccnc3)c2=O)[C@H](OC(C)=O)[C@@H]1OC(C)=O.Cl [X219 hydrochloride]: 8.02
- CC(=O)OC[C@@]1(F)O[C@@H](n2ccc(=O)n(COC(=O)c3cccnc3)c2=O)[C@H](OC(C)=O)[C@@H]1OC(C)=O: 8.38

Attention now turns to another entry.
Asked: // fetch Content reduction (%) given entry O=c1ccn([C@@H]2O[C@](F)(CO)[C@@H](O)[C@H]2O)c(=O)[nH]1 [Compound X28-1, reference compound]
Given back: 46.9

---

# ASSAY_PROCEDURE: Pharmacokinetic evaluation in cynomolgus monkeys (Test Example 5)
# Type: in vivo
# COND: cynomolgus monkey; nucleoside X28-1 in plasma; male cynomolgus monkeys; single iv 1.0 mg/kg
REPORTED_PROPERTY: AUC(0-t)

Asked: Note down AUC(0-t) recorded for O=c1ccn([C@@H]2O[C@](F)(CO)[C@@H](O)[C@H]2O)c(=O)[nH]1 [Compound X28-1, reference compound]
Given back: 3610 ng·h/mL

---

# ASSAY_PROCEDURE: Stability test of compounds in solutions at different pH values
# COND: buffered saline solution pH 4.0, 9 h
Assign class by Content reduction (%): not lower than 2% means Met; lower than 2% means Not met.

Please review the following examples before continuing.
- CC(=O)OC[C@@]1(F)O[C@@H](n2ccc(=O)n(COC(=O)c3cccnc3)c2=O)[C@H](OC(C)=O)[C@@H]1OC(C)=O.Cl [X219 hydrochloride]: Not met
- CCC(CC)C(=O)OCn1c(=O)ccn([C@@H]2O[C@](F)(COC(=O)C(C)C)[C@@H](O)[C@H]2O)c1=O [Compound X52]: Not met
- CC(C)C(=O)OCn1c(=O)ccn([C@@H]2O[C@](F)(COC(=O)C(C)C)[C@@H](O)[C@H]2O)c1=O [Compound X51]: Met

Asked: Tell me whether Content reduction (%) is at least 2% here: CC(C)C(=O)OC[C@@]1(F)O[C@@H](n2ccc(=O)n(COC(=O)C3CCCCC3)c2=O)[C@H](O)[C@@H]1O [Compound X55]
Given back: Met

Asked: Could you please find out whether CC(=O)OC[C@@]1(F)O[C@@H](n2ccc(=O)n(COC(=O)c3cccnc3)c2=O)[C@H](OC(C)=O)[C@@H]1OC(C)=O [Compound X219] has Content reduction (%) that meets 2% or exceeds it?
Given back: Not met

Asked: Does Content reduction (%) meet or surpass 2% for CC(C)C(=O)OC[C@@]1(F)O[C@@H](n2ccc(=O)n(COC(=O)c3cccnc3)c2=O)[C@H](OC(=O)C(C)C)[C@@H]1OC(=O)C(C)C [Compound X206] ?
Given back: Not met

Asked: Content reduction (%) >= 2% for O=c1ccn([C@@H]2O[C@](F)(CO)[C@@H](O)[C@H]2O)c(=O)[nH]1 [Compound X28-1, reference compound] ?
Given back: Met

---

# ASSAY_PROCEDURE: Stability test of compounds in solutions at different pH values
# COND: buffered saline solution pH 6.8, 24 h
In this section we review reported Content reduction (%) values for a set of molecules.

- CC(C)C(=O)OCn1c(=O)ccn([C@@H]2O[C@](F)(COC(=O)C(C)C)[C@@H](O)[C@H]2O)c1=O: 7.4%
- CCC(CC)C(=O)OCn1c(=O)ccn([C@@H]2O[C@](F)(COC(=O)C(C)C)[C@@H](O)[C@H]2O)c1=O: 8.7%

Shifting focus to the molecule that follows.
Asked: # return recorded Content reduction (%) for entry "CC(C)C(=O)OC[C@@]1(F)O[C@@H](n2ccc(=O)n(COC(=O)c3cccnc3)c2=O)[C@H](OC(=O)C(C)C)[C@@H]1OC(=O)C(C)C"
Given back: 8.16%

---

# ASSAY_PROCEDURE: Stability test of compounds in solutions at different pH values
# COND: buffered saline solution pH 6.8, 15 h
Catalogue of compounds with associated Content reduction (%)
Reply numerically in %, unit not repeated.

Record excerpt, results attached:
* CC(C)C(=O)OC[C@@]1(F)O[C@@H](n2ccc(=O)n(COC(=O)c3cccnc3)c2=O)[C@H](OC(=O)C(C)C)[C@@H]1OC(=O)C(C)C | 5.72
* CC(C)C(=O)OCn1c(=O)ccn([C@@H]2O[C@](F)(COC(=O)C(C)C)[C@@H](O)[C@H]2O)c1=O | 4.7
* CC(=O)OC[C@@]1(F)O[C@@H](n2ccc(=O)n(COC(=O)c3cccnc3)c2=O)[C@H](OC(C)=O)[C@@H]1OC(C)=O | 5.27
* O=c1ccn([C@@H]2O[C@](F)(CO)[C@@H](O)[C@H]2O)c(=O)[nH]1 [Compound X28-1, reference compound] | 33.4
* CC(C)C(=O)OC[C@@]1(F)O[C@@H](n2ccc(=O)n(COC(=O)C3CCCCC3)c2=O)[C@H](O)[C@@H]1O | 5.4
* CCC(CC)C(=O)OCn1c(=O)ccn([C@@H]2O[C@](F)(COC(=O)C(C)C)[C@@H](O)[C@H]2O)c1=O | 5.4

Next item in the queue.
Asked: Using the record for CC(=O)OC[C@@]1(F)O[C@@H](n2ccc(=O)n(COC(=O)c3cccnc3)c2=O)[C@H](OC(C)=O)[C@@H]1OC(C)=O.Cl [X219 hydrochloride] , state its measured Content reduction (%).
Given back: 5.13
